Readings of self-cleavage for the listed variants
B1: LINE1-full (parent)
chain: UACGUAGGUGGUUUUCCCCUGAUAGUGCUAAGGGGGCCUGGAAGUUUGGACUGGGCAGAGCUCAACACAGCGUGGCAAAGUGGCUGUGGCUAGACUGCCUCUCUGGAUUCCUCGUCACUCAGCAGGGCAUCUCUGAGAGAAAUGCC

# Variants of: B1
# protocol text: self-cleavage, relative activity (ratio to wild type); higher = more cleavage; in vitro, sequencing; the parent is a self-cleaving ribozyme

{"columns": ["alteration", "result"],
 "data": [
  ["U14C G33U", 1.14],
  ["C110U C113A", 1.35],
  ["A42G U102C", 1.36],
  ["G35A U108C", 1.11]
]}

Now look at this entry.
**Q:** I have this variant here, U102C U109A , and I need its recorded self-cleavage.
**A:** 1.31

// data source = the RNAGym collection of RNA variant scans (doi:10.7554/elife.90254)
